// provenance: patent US11407771B2

molecular target: MAPK13 (Homo sapiens (Human)); conditions: read-out: MAPK13 inhibition
Below is a list of entries, each paired with its recorded IC50 value.
measuredProperty: IC50

1. Cc1ccc(-n2nc(C(C)(C)C)cc2NC(=O)Nc2ncc(CCc3ccnc(NC(=O)C4CCOCC4)c3)s2)cc1 < 250 nM
2. CC(=O)Nc1cc(CCc2ccc(NC(=O)Nc3cc(C(C)(C)C)nn3-c3ccc(C)cc3)c(F)c2)ccn1 < 250 nM
3. CC(C)(C)c1cc(NC(=O)Nc2ncc(CCc3ccnc(NC(=O)C4CC4)c3)s2)n(-c2ccc(Cl)cc2)n1 < 250 nM

----------
biological target: MAPK13 (Homo sapiens (Human), UniProt O15264); conditions: read-out: MAPK13 inhibition
Sequence (O15264 whole entry): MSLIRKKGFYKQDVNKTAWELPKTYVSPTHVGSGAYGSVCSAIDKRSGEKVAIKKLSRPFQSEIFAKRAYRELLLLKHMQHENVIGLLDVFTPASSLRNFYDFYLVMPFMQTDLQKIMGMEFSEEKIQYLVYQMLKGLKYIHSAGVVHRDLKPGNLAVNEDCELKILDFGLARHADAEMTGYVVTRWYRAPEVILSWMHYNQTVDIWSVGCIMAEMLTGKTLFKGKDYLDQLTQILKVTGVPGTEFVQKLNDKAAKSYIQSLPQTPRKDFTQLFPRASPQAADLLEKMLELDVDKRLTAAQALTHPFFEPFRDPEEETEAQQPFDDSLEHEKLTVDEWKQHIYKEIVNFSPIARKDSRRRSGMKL
pIC50: −log10 of the molar value.
Below is a list of entries, each paired with its recorded pIC50 value.
measuredProperty: pIC50

1. CC(=O)Nc1cc(Oc2ccc(NC(=O)Nc3cc(C(C)(C)C)nn3C(C)C)c(F)c2)ccn1 > 6.60
2. CC(=O)Nc1cc(CCc2cnc(NC(=O)Nc3cc(C(C)(C)C)no3)s2)ccn1 > 6.60
3. CC(=O)Nc1cc(Oc2ccc(NC(=O)Nc3cc(C4CC4)ccc3Cl)c(F)c2)ccn1 > 6.60
4. CC(C)(C)c1cc(NC(=O)Nc2ccc(Oc3ccncc3)cc2F)n(-c2cccc(F)c2)n1 > 6.60
5. CC(=O)Nc1cc(Oc2ccc(NC(=O)Nc3cc([Si](C)(C)C)ccc3F)c(F)c2)ccn1 > 6.60
6. CC(C)n1nc(C(C)(C)C)cc1NC(=O)Nc1ncc(CCc2ccncc2)s1 < 6.00
7. COC(=O)Nc1cc(CCc2ccc(NC(=O)Nc3cc(C(C)(C)C)nn3-c3ccc(C)cc3)c(F)c2)ccn1 < 6.00
8. CCNC(=O)Nc1cc(CCc2cnc(NC(=O)Nc3cc(C(C)(C)C)nn3C)s2)ccn1 > 6.60
